Tested on: MCF 10A human mammary epithelial cells line
Test: SRB antiproliferative assay, MCF 10A (normal)
Assay type: cell-based
Details: Homo sapiens, MCF-10A, 72 h, mean ± SD, read-out: Normal cell line, IC50, MCF-10A
Method: We determined the effect of various structural factors in the substrates on the antiproliferative activity against those selected to the study cell lines: the location and/or the presence of the prenyl group, the chalcone/flavanone skeleton and the presence of an O-methyl group at C-5 in flavanones. […] The in vitro antiproliferative activity was measured using SRB assay. […]
Note to self: IC50 under 90 µM means Yes, ties and anything higher get No.

Example cases with answers are listed next.
COc1cc(O)c(CC=C(C)C)c(O)c1C(=O)/C=C/c1ccc(O)cc1 [XN]	Yes
CC(C)=CCc1c(O)cc2c(c1O)C(=O)CC(c1ccc(O)cc1)O2 (centres unmarked) [6PN]	No
O=C1C[C@@H](c2ccc(O)cc2)Oc2cc(O)cc(O)c21 [NG, Naringenin, reference compound]	No

Now examine the next entry.
## Task # TODO verify IC50 < 90 µM strictly for this compound: COc1cc(O)c(CC=C(C)C)c(O)c1C(=O)CCc1ccc(O)cc1 [2HXN]
## Result Yes
